- Test system: Rice
- test.protocol: post-emergence herbicidal activity, greenhouse
- Type: in vivo
- measurement.context: Table II, 2 WAT, 5.6 kg/h
measurement.name: post-emergence herbicidal activity index

q: Any idea what post-emergence herbicidal activity index came out for "CC(C)SSN(CC#N)CP(=O)(Oc1ccccc1)Oc1ccccc1" on Rice?
a: 0 (0-24% control)

q: Any idea what post-emergence herbicidal activity index came out for "N#CCN(CP(=O)(Oc1ccccc1)Oc1ccccc1)SSc1ccc(Cl)cc1" on Rice?
a: 1 (25-49% control)

q: Any idea what post-emergence herbicidal activity index came out for "CSSN(CC#N)CP(=O)(Oc1ccccc1)Oc1ccccc1" on Rice?
a: 3 (75-99% control)

q: Any idea what post-emergence herbicidal activity index came out for "N#CCN(CP(=O)(Oc1ccccc1)Oc1ccccc1)SSc1ccc2ccccc2c1" on Rice?
a: 0 (0-24% control)

* * *

- System: Canada Thistle
- test.protocol: post-emergence herbicidal activity, greenhouse
- Format: in vivo
- measurement.context: Table I, 4 WAT, 5.6 kg/h
measurement.name: post-emergence herbicidal activity index

q: Any idea what post-emergence herbicidal activity index came out for "CC(C)SSN(CC#N)CP(=O)(Oc1ccccc1)Oc1ccccc1" on Canada Thistle?
a: 2 (50-74% control)

q: Any idea what post-emergence herbicidal activity index came out for "N#CCN(CP(=O)(Oc1ccccc1)Oc1ccccc1)SCl" on Canada Thistle?
a: 1 (25-49% control)

q: Any idea what post-emergence herbicidal activity index came out for "N#CCN(CP(=O)(Oc1ccccc1)Oc1ccccc1)SSc1cccc(C(F)(F)F)c1" on Canada Thistle?
a: 2 (50-74% control)

q: Any idea what post-emergence herbicidal activity index came out for "COc1ccc(SSN(CC#N)CP(=O)(Oc2ccccc2)Oc2ccccc2)cc1" on Canada Thistle?
a: 2 (50-74% control)

q: Any idea what post-emergence herbicidal activity index came out for "CCCCCCCCSSN(CC#N)CP(=O)(Oc1ccccc1)Oc1ccccc1" on Canada Thistle?
a: 1 (25-49% control)

q: Any idea what post-emergence herbicidal activity index came out for "CC(C)CCSSN(CC#N)CP(=O)(Oc1ccccc1)Oc1ccccc1" on Canada Thistle?
a: 2 (50-74% control)

q: Any idea what post-emergence herbicidal activity index came out for "CSSN(CC#N)CP(=O)(Oc1ccccc1)Oc1ccccc1" on Canada Thistle?
a: 4 (100% control)

* * *

- Test system: Downy Brome
- test.protocol: post-emergence herbicidal activity, greenhouse
- Assay type: in vivo
- measurement.context: Table I, 4 WAT, 11.2 kg/h
measurement.name: post-emergence herbicidal activity index

q: Quick check: post-emergence herbicidal activity index of "N#CCN(CP(=O)(Oc1ccccc1)Oc1ccccc1)SSc1ccc2ccccc2c1" ?
a: 0 (0-24% control)

q: Quick check: post-emergence herbicidal activity index of "N#CCN(CP(=O)(Oc1ccccc1)Oc1ccccc1)SSc1ccc(Cl)cc1" ?
a: 1 (25-49% control)

q: Quick check: post-emergence herbicidal activity index of "CC(C)CCSSN(CC#N)CP(=O)(Oc1ccccc1)Oc1ccccc1" ?
a: 2 (50-74% control)

q: Quick check: post-emergence herbicidal activity index of "N#CCN(CP(=O)(Oc1ccccc1)Oc1ccccc1)SSc1cccc(C(F)(F)F)c1" ?
a: 2 (50-74% control)

q: Quick check: post-emergence herbicidal activity index of "CSSN(CC#N)CP(=O)(Oc1ccccc1)Oc1ccccc1" ?
a: 2 (50-74% control)

q: Quick check: post-emergence herbicidal activity index of "CC(C)SSN(CC#N)CP(=O)(Oc1ccccc1)Oc1ccccc1" ?
a: 3 (75-99% control)

q: Quick check: post-emergence herbicidal activity index of "N#CCN(CP(=O)(Oc1ccccc1)Oc1ccccc1)SSCCc1ccccc1" ?
a: 3 (75-99% control)

q: Quick check: post-emergence herbicidal activity index of "N#CCN(CP(=O)(Oc1ccccc1)Oc1ccccc1)SSC1CCCCC1" ?
a: 1 (25-49% control)

q: Quick check: post-emergence herbicidal activity index of "COc1ccc(SSN(CC#N)CP(=O)(Oc2ccccc2)Oc2ccccc2)cc1" ?
a: 2 (50-74% control)

q: Quick check: post-emergence herbicidal activity index of "CCCCCCCCSSN(CC#N)CP(=O)(Oc1ccccc1)Oc1ccccc1" ?
a: 0 (0-24% control)

q: Quick check: post-emergence herbicidal activity index of "N#CCN(CP(=O)(Oc1ccccc1)Oc1ccccc1)SCl" ?
a: 2 (50-74% control)

q: Quick check: post-emergence herbicidal activity index of "N#CCN(CP(=O)(Oc1ccccc1)Oc1ccccc1)SSCc1cccc(C(F)(F)F)c1" ?
a: 2 (50-74% control)
